# tested_on: Thyrotropin receptor (Homo sapiens) (UniProt P16473)
# Sequence (P16473 whole entry, looked up): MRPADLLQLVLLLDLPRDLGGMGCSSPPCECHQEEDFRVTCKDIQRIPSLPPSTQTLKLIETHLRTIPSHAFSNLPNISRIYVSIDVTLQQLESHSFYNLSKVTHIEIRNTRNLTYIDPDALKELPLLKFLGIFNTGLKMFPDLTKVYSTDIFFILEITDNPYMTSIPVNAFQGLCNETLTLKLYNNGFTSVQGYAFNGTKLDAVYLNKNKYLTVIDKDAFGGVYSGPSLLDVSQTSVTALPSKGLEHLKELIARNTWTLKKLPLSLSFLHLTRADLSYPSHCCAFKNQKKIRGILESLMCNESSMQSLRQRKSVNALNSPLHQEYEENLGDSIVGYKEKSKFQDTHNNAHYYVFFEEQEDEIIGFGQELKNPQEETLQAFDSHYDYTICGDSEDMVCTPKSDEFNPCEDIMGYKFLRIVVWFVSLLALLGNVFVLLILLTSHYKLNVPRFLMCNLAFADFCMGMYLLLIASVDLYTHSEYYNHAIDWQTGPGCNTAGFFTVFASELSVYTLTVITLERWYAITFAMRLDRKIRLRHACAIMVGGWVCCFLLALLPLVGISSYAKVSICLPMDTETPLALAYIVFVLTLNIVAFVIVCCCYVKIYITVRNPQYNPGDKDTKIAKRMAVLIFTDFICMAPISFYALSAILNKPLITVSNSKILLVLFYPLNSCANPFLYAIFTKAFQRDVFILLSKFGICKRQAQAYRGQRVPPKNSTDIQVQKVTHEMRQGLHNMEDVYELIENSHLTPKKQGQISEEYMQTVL
# assay_comment: qHTS assay to identify small molecule agonists of the thyroid stimulating hormone receptor (TSHR) signaling pathway (AID 1224843); note: nearly all actives have a fitted effect of over 45% in size
# measurement_conditions: TSHR-HEK293 cells, cAMP HTRF, agonist mode, 30 min; series mostly up to 92.4 µM
Results filed as inconclusive are left out. Activity calls are given as the source filed them. Calls come from the whole dose curve.
reported_metric: outcome

O=C(Nc1ccc(Oc2ccc(Cl)cc2)c(Cl)c1)c1cc(I)cc(I)c1O :: inactive
OCCN1CCN(CC/C=C2/c3ccccc3Sc3ccc(C(F)(F)F)cc32)CC1 :: inactive
N/C(=N\N=C\c1ccc(Cl)cc1)N/N=C/c1ccc(Cl)cc1 :: inactive
CCOc1nc2cccc(C(=O)OC(C)OC(=O)OC3CCCCC3)c2n1Cc1ccc(-c2ccccc2-c2nn[nH]n2)cc1 (centres undefined) :: inactive
